Data credit: ChEMBL document CHEMBL3739401

protocol-notes: Aqueous solubility of compound
Type: physicochemical
condition-parameters: water
assay-endpoint: solubility (µg/mL)

C=C(C[N+]1(C)CCN(c2ccc(/C=C/C(=O)/C=C(O)/C=C/c3ccc(N4CC[N+](C)(CC(=C)C(=O)N(C)C)CC4)cc3)cc2)CC1)C(=O)N(C)C.[Br-].[Br-]
1000

A = COC(=O)/C(=C\c1ccccc1)C[N+]1(C)CCN(c2ccc(/C=C/C(=O)/C=C(O)/C=C/c3ccc(N4CC[N+](C)(C/C(=C/c5ccccc5)C(=O)OC)CC4)cc3)cc2)CC1.[Br-].[Br-]
B = C=CC[N+]1(C)CCN(c2ccc(/C=C/C(=O)/C=C(O)/C=C/c3ccc(N4CC[N+](C)(CC=C)CC4)cc3)cc2)CC1.[Br-].[Br-]
(Q) Between item A and item B , which reported solubility is smaller? Response format: the label of the selected entry.
(A) A
